- Measurement Description: in vitro
- Condition Parameters: pig, PAMPA, pH 7.4
Value Type: Papp at 2.5 h
Numeric answer plus unit only.

Request the reported Papp at 2.5 h associated with CCn1cc(C(=O)O)c(=O)c2cc(F)c(N3CCNCC3)nc21 [Enoxacin]
0.5 ×10⁻⁶ cm/s

----------
- Measurement Description: PAMPA-BBB assay
- Condition Parameters: pig, PAMPA, pH 7.4
Value Type: Papp at 2.5 h (×10⁻⁶ cm/s)
Quick note: give the figure in ×10⁻⁶ cm/s, leave out the unit.

Request the reported Papp at 2.5 h associated with CCOC(=O)/C=C/C(C(=O)/C=C/c1ccc(OC)cc1)=C(O)\C=C\c1ccc(OC)cc1 [Compound 4]
2.5

Request the reported Papp at 2.5 h associated with Cn1c(=O)c2c(ncn2C)n(C)c1=O [Caffeine, reference compound]
0.5

Request the reported Papp at 2.5 h associated with CN(C)CCCN1c2ccccc2Sc2ccccc21 [Promazine, reference compound]
5.9

Request the reported Papp at 2.5 h associated with CCOC(=O)/C=C/C(C(=O)/C=C/c1ccc(OC)cc1)=C(O)\C=C\c1ccc(OCc2ccccc2)cc1 [Compound 5]
4.8

Request the reported Papp at 2.5 h associated with CN1C(C(=O)Nc2ccccn2)=C(O)c2ccccc2S1(=O)=O [Piroxicam, reference compound]
0.4

Request the reported Papp at 2.5 h associated with O=C(O)/C=C/C(C(=O)/C=C/c1ccc(OCc2ccccc2)cc1)=C(O)\C=C\c1ccc(OCc2ccccc2)cc1 [Compound 7]
1.7

Request the reported Papp at 2.5 h associated with CCOC(=O)/C=C/C(C(=O)/C=C/c1ccc(OCc2ccccc2)cc1)=C(O)\C=C\c1ccc(OCc2ccccc2)cc1 [Compound 6]
4.5

----------
- Measurement Target: UniProt:P49841
- Sequence (P49841 whole entry): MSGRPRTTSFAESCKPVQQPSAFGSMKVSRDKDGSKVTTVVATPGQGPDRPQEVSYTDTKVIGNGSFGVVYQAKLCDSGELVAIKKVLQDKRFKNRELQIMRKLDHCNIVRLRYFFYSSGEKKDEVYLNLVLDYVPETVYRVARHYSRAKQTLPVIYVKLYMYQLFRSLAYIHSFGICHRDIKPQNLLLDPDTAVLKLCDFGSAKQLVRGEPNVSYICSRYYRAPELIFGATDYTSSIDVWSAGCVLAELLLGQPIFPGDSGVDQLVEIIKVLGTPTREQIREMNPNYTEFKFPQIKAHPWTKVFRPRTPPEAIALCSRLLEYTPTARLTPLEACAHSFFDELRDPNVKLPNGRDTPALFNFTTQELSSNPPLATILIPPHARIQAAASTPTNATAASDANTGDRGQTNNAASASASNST
- Measurement Description: GSK-3β inhibition, luminescent kinase assay (Kinase-Glo)
- Condition Parameters: GSK-3β inhibition IC50 (μM) ± SEM, human recombinant enzyme, luminescence method
Value Type: IC50

Request the reported IC50 associated with CCOC(=O)/C=C/C(C(=O)/C=C/c1ccc(OC)cc1)=C(O)\C=C\c1ccc(OC)cc1 [Compound 4]
> 10 µM

Request the reported IC50 associated with O=C(O)/C=C/C(C(=O)/C=C/c1ccc(OCc2ccccc2)cc1)=C(O)\C=C\c1ccc(OCc2ccccc2)cc1 [Compound 7]
> 10 µM

----------
- Test system: SH-SY5Y cells
- Measurement Description: t-BuOOH-induced intracellular ROS formation (H2DCF-DA probe)
- Format: cell-based, human
- Condition Parameters: 5 μM for 24 h, then t-BuOOH 100 μM for 30 min
Value Type: t-BuOOH-induced intracellular ROS formation

CCOC(=O)/C=C/C(C(=O)/C=C/c1ccc(OC)cc1)=C(O)\C=C\c1ccc(OC)cc1
significant reduction
O=C(O)/C=C/C(C(=O)/C=C/c1ccc(OCc2ccccc2)cc1)=C(O)\C=C\c1ccc(OCc2ccccc2)cc1
not
CCOC(=O)/C=C/C(C(=O)/C=C/c1ccc(OC)cc1)=C(O)\C=C\c1ccc(OCc2ccccc2)cc1
significant reduction
CCOC(=O)/C=C/C(C(=O)/C=C/c1ccc(OCc2ccccc2)cc1)=C(O)\C=C\c1ccc(OCc2ccccc2)cc1
not
